- test-protocol: A CellTox Green Cytotoxicity Assay to monitor cytotoxicity in HEK293 cells - 40 hour (AID 1224871); further: on the % scale 0 is the no-effect control and ±100 the full control effect; nearly all actives have a fitted effect of over 45% in size
- applied-conditions: CellTox Green fluorescence; series mostly up to 76.8 µM
Inconclusive results are not listed. Activity calls are given as the source filed them. The call rests on the fitted dose curve; in most records, active means well fitted activation curve with a large enough effect in the repeat runs; inconclusive means weak or mixed curves; inactive means flat fitted curve, though single readings scatter.
assay-endpoint: cytotoxicity increase

Solved entries:
CC(=O)Nc1ccc(OCCOCCOc2ccc(NC(C)=O)cc2)cc1 ... inactive
COC(=O)C(c1ccccc1Cl)N1CCc2sccc2C1 (stereo not given) ... inactive
CC/C=C/CCCCCCCCCCOC(C)=O ... inactive
CC1(C)C(=O)C(C)(C)C1=O ... inactive
COc1cc(OC)cc(OC)c1 ... inactive
COc1cc2nc(N3CCN(C(=O)C4CCCO4)CC3)nc(N)c2cc1OC (stereo not given) ... inactive
CC(C)(C)C(=O)CCc1ccc(Cl)cc1 ... inactive
C=CCCCCCCCCCCCCCC ... 0.351% [at 15.8 µM] (inactive)
Cc1ccc(NC(N)=O)cc1 ... inactive
C[C@@H]1CCC[C@H](C)N1CCCC(O)(c1ccccc1)c1ccccn1 (stereo not given in full) ... inactive

Data request, read-out cytotoxicity increase, for `C=CCCCCCCCCOC(C)=O`
inactive

Where these numbers come from: PubChem BioAssay (Tox21)
